Data provenance is PubChem BioAssay (NCI).

Could you please report measured TGI for the items listed next?
System: ACHN renal
Assay text: NCI tumour cell line growth inhibition, 384-well format
Please give a number only; it is taken to be in µM.

QUERY: Which TGI is reported for this compound? `CC(C)Nc1cc(-c2c[nH]c(C(=O)N[C@H](CO)c3cccc(Cl)c3)c2)c(Cl)cn1`
RESULT: 16.3

QUERY: Which TGI is reported for this compound? Clc1ccc(C(c2ccccc2Cl)C(Cl)Cl)cc1 (centres undefined)
RESULT: 29.6

QUERY: Which TGI is reported for this compound? `CC(C)c1cnn2c(NCc3ccccc3)cc(NC[C@H]3CCNC[C@@H]3O)nc12`
RESULT: 11.2

* * *

Could you please report measured TGI for the items listed next?
Test system: OVCAR-3 ovarian
Assay text: NCI tumour cell line growth inhibition, 384-well format
Please give a number only; it is taken to be in µM.

QUERY: Which TGI is reported for this compound? Clc1ccc(C(c2ccccc2Cl)C(Cl)Cl)cc1 (centres undefined)
RESULT: 29

QUERY: Which TGI is reported for this compound? `CN(Cc1cnc2nc(N)nc(N)c2n1)c1ccc(C(=O)N[C@@H](CCC(=O)O)C(=O)O)cc1`
RESULT: 0.0276

QUERY: Which TGI is reported for this compound? `CC(C)Nc1cc(-c2c[nH]c(C(=O)N[C@H](CO)c3cccc(Cl)c3)c2)c(Cl)cn1`
RESULT: 19.6

* * *

Test system: RPMI-8226 leukemia
Assay text: NCI tumour cell line growth inhibition, 384-well format; in the data active means GI50 below about 0.43 µM; inactive means the rest
// allowed return values: active, inactive

QUERY: Per the assay record, what outcome was assigned to `CC(C)c1c(-c2ccccc2)nc2c(C#N)c[nH]n2c1=O` ?
RESULT: inactive

QUERY: Per the assay record, what outcome was assigned to Clc1ccc(C(c2ccccc2Cl)C(Cl)Cl)cc1 (stereo not given) ?
RESULT: inactive

QUERY: Per the assay record, what outcome was assigned to `CC(C)Nc1cc(-c2c[nH]c(C(=O)N[C@H](CO)c3cccc(Cl)c3)c2)c(Cl)cn1` ?
RESULT: active

QUERY: Per the assay record, what outcome was assigned to `CC[C@H](Nc1ncnc2nc[nH]c12)c1nc2cccc(F)c2c(=O)n1-c1ccccc1` ?
RESULT: inactive

QUERY: Per the assay record, what outcome was assigned to `CN(Cc1cnc2nc(N)nc(N)c2n1)c1ccc(C(=O)N[C@@H](CCC(=O)O)C(=O)O)cc1` ?
RESULT: active

* * *

System: NCI-H460 NSCLC
Assay text: NCI tumour cell line growth inhibition, 384-well format
Assay endpoint: TGI (µM)
Please give a number only; it is taken to be in µM.

QUERY: Which TGI is reported for this molecule? `CC(C)c1c(-c2ccccc2)nc2c(C#N)c[nH]n2c1=O`
RESULT: 65.3

QUERY: Which TGI is reported for this molecule? `CC(C)c1cnn2c(NCc3ccccc3)cc(NC[C@H]3CCNC[C@@H]3O)nc12`
RESULT: 0.0646

QUERY: Which TGI is reported for this molecule? `CC(C)Nc1cc(-c2c[nH]c(C(=O)N[C@H](CO)c3cccc(Cl)c3)c2)c(Cl)cn1`
RESULT: 13.6

* * *

System: TK-10 renal
Assay text: NCI tumour cell line growth inhibition, 384-well format
Could you please report measured GI50 for the items listed next?

QUERY: Which GI50 is reported for this compound? `CC(C)c1cnn2c(NCc3ccccc3)cc(NC[C@H]3CCNC[C@@H]3O)nc12`
RESULT: 2980 nM

QUERY: Which GI50 is reported for this compound? `CC(C)Nc1cc(-c2c[nH]c(C(=O)N[C@H](CO)c3cccc(Cl)c3)c2)c(Cl)cn1`
RESULT: 2600 nM

QUERY: Which GI50 is reported for this compound? `CC(C)c1c(-c2ccccc2)nc2c(C#N)c[nH]n2c1=O`
RESULT: 34100 nM

QUERY: Which GI50 is reported for this compound? `CC[C@H](Nc1ncnc2nc[nH]c12)c1nc2cccc(F)c2c(=O)n1-c1ccccc1`
RESULT: > 38300 nM
